- Experimental system: hS1P1 receptor (Homo sapiens, UniProt P21453)
- Construct: host or cells: U2OS
- Sequence (P21453 whole entry): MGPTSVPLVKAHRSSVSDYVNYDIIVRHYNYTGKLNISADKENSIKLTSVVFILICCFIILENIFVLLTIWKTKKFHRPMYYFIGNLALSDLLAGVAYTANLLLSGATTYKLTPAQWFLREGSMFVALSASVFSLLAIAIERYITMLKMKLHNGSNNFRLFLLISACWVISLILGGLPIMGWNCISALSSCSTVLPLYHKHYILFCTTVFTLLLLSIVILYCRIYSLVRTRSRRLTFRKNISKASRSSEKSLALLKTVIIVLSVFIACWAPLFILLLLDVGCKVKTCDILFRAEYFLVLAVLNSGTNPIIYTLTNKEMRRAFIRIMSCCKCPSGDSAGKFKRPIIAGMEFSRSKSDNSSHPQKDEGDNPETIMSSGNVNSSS
- Assay summary: hS1P1 receptor internalization assay (cell imaging-based, hS1P1-eGFP U2OS cells)
- Cond: U2OS cell line expressing hS1P1-eGFP; compounds incubated at 37° C. for one hour; GFP-containing endosomes per cell (ArrayScan); read-out: hS1P1 Receptor Internalization (bioimaging) EC50 IP
Where a name gives a salt, the structure may show the parent alone.
Lab note: cut-off is 2000 nM. Strictly less in EC50 is criterion met. Exactly 2000 nM or more is criterion not met.

>>> print(df.to_string())
                                   compound     discrete_label
0  O=C(O)C1CN(Cc2ccc(-c3nc4ccc(C5(c6ccccc6)CCO5)nc4s3)c(F)c2)C1 (stereo not drawn)      criterion met
1  O=C(O)c1cn(Cc2ccc(-c3nc4ccc(C5(c6ccccc6)CC5)nc4s3)c(F)c2)cn1 [Example 96, hydrochloride]      criterion met
2  Cc1cc(CN2CC(C(=O)O)C2)ccc1-c1nc2ccc(C3(c4ccccc4)CC3)nc2s1      criterion met
3  O=C(O)C1(C(=O)O)CC(Cc2ccc(-c3nc4ccc(C5(c6ccccc6)CC5)nc4s3)c(F)c2)C1  criterion not met
4  O=C(O)C1CN(Cc2ccc(-c3nc4ccc(C5(c6ccccn6)CC5)cc4s3)c(F)c2)C1  criterion not met
5  CS(=O)(=O)NCCc1ccc(-c2nc3ccc(C4(c5ccccc5)CC4)nc3s2)c(F)c1  criterion not met
6  O=C(O)COCc1ccc(-c2nc3ccc(C4(c5ccccc5)CC4)nc3s2)c(F)c1      criterion met
7  O=C(Nc1ccc(-c2nc3ccc(C4(c5ccccc5)CC4)nc3s2)c(F)c1)C(F)(F)F      criterion met
8  O=C(O)C1CN(Cc2ccc(-c3nc4ccc(C5(c6ccccc6)CCCCC5)nc4s3)c(F)c2)C1      criterion met
